meta.source: PubChem BioAssay (NCI)

Each item that follows carries a reported TGI.
- System: OVCAR-8 ovarian
- procedure-summary: NCI tumour cell line growth inhibition, 48 h

Worked examples, 5 molecules total:
- COc1ccc2[nH]cc(-c3ccc(-c4c[nH]c5ccc(OC)cc45)s3)c2c1: > 49.9 µM
- CC(=O)OCC1=C(C(=O)O)N2C(=O)C(NC(=O)CSc3ccncc3)C2SC1 (centres undefined): > 100 µM
- CN(O)C(=O)SCC(NC(=O)CCC(N)C(=O)O)C(=O)NCC(=O)O (centres undefined): > 2000 µM
- O.O.[NH-]C1(C(=O)O)CCCC1.[NH-]C1(C(=O)O)CCCC1.[Ni+2]: > 100 µM
- C[C@@]1(C(=O)O)CCC[C@]2(C)C1CC[C@@]13CC(=O)[C@@](CO)(CC[C@]12O)C3 (some centres undefined): > 100 µM

Quickly give me recorded TGI for Fc1ccc(Oc2nc3ccc(C(F)(F)F)cc3nc2-c2ccccc2)cc1
> 100 µM

Return the recorded TGI value; entry: O=C1C(Cl)=C(Nc2cccc(F)c2)C(=O)N1Cc1ccc(Cl)cc1
8.83 µM

Give TGI for CCN1CCC(O)(c2ccc(Oc3ccccc3)cc2)C(C(=O)c2ccc(Oc3ccccc3)cc2)C1 (centres undefined)
38.6 µM

Please give the documented TGI of COC(=O)CC1C[C@H](C#N)N(C(=O)c2ccccc2)C[C@@H]1CC[N+](=O)[O-] (some centres undefined)
> 100 µM

Specify reported TGI for the molecule shown: CC1(C)C2C=C(CCN3CCOCC3)CC1C2 (centres undefined)
> 100 µM

Using the record for N#CN=[N+]([O-])c1ccc(C(=O)O)cc1 , state its measured TGI.
37.1 µM

Name the recorded TGI of the molecule listed here: C=CCOc1cc(NC(=S)c2ccoc2C)ccc1OC
> 100 µM

Specify reported TGI for the molecule shown: COC(=O)/C=C\COCC1C2CCC(=O)C21 (centres undefined)
> 25 µM

Let me know recorded TGI for CC(=O)NC1C(OC[C@@H](CC(=O)N[C@@H](CC(=O)O)CC(=O)N[C@H](CC(=O)N[C@@H](CCCN)CC(=O)N[C@@H](CCCN)CC(=O)N[C@H](CC(N)=O)C(C)C)C(C)C)NC(=O)C[C@@H](N)C(C)C)OC(CO)C(O)C1O (some centres undefined) , thanks.
> 100 µM

----------
- System: A549 NSCLC
- procedure-summary: NCI tumour cell line growth inhibition, 48 h; in the data active means GI50 below about 0.43 µM; inactive means the rest
Please reply with one of these outcomes: active, inactive

Worked set:
- N#Cc1ccc(OCc2nc(N)nc(N)c2-c2ccc(Cl)c(Cl)c2)cc1: active
- Cc1nnn[n-]1.N.N.N.N.N.[Cl-].[Co+3]: inactive

Kindly provide the recorded test outcome for the following molecule: N.N.N.N.N.NC(=O)c1nn[n-]n1.[Cl-].[Co+3]
inactive

I'd appreciate the recorded outcome for COC(=O)c1ccc(-c2nc3cc(Cl)c(Cl)cc3nc2C#N)cc1 from this test.
inactive

Write down the call the test reported for this molecule. Item: N.N.N.N.[Co+3].[N-]=[N+]=[N-].[N-]=[N+]=[N-].[N-]=[N+]=[N-]
inactive

Please share the test call associated with O=C(Oc1cccc(F)c1OC(=O)c1cccc(O)c1)c1cccc(O)c1 .
inactive

Name the outcome recorded for C=C1C(=O)O[C@H]2[C@H]1CC/C(CNC(=O)/C=C/c1cc(OC)c(OC)c(OC)c1)=C\CC[C@@]1(C)O[C@@H]21 in the assay.
inactive

State the result this test recorded for COc1ccc(-c2nn(-c3cccc(Cl)c3)cc2-c2cc(-c3cccs3)[nH]c(=S)n2)cc1 .
inactive

Which outcome was assigned to N=C1C(c2nc3ccccc3s2)=C(O)CN1c1ccc(F)c(Cl)c1 in this test?
inactive
